ASSAY_TARGET: pooled human IgG (human IgG1, 2, 3 and 4)
MEASURED_QUANTITY: Enzyme Activity Endpoint Assay: scIgG (ng/µL)
Express it in ng/µL; write the number only.

PRT-518 (protein) MVTSVWTKGVTPPTDFIKGEDVFHAPYKAGQGWYDITKTFNGKDNLLCGAATAGNMLHWWFDQNKEYIEAYLKKHPEKQKIIFNNQELFDLKAAINTKGSQKNSELFNYFRDKAFPNLSARRLGVFPDLVLDMFINGYYLNVTKTQTTDVNRTYQEKDKRGGIFDAVFTRGVQSKLLTSRHDFKEKGLKEISDLIKQELTEGKALGLSHTYANVRINHVINLWGADFDSDGNLKAIYVTDSDTNASIGMKKYFVGVNSAGKVAISAKEIKEDNIGAQVLGLFTLSTGQDIWNQTNLEHHHHHH: 0

// below: Enzyme Activity Endpoint Assay: scIgG requested for another protein
Look up Enzyme Activity Endpoint Assay: scIgG: PRT-453 (protein) MVTSVWTKGVTPPANFTQGEDVFHAPYKANQGWYDITKTFNGKDDLLCGAATAGNMLHWWFDQNKDQIEAYLKEHPEKQKINFNGEQMFDVKEAIDTKDDQTNSKLFEYFKEKAFPYLSTKHLGVFPDHVLDMFINGYRLSLTNHGPTPVKEGSKDPRGGIFDAVFTRGDQSKLLTSRHDLKNKTLKEISDLIKQELTEGKALALSHTYANVRINHVINLWGADFDSNGNLEAIYVTDSDSNASIGMKKYFVGVNSAGKVAISAKEIEDDNIGAQVLGLFTLSTGQDIWNQTNLEHHHHHH
0
